system: FXR ligand binding domain (GST-FXR LBD fusion protein, human FXR aa 193-473) (Homo sapiens, UniProt Q96RI1)
Construct: fused on or other part: Glutathione-S-transferase (GST) fused N-terminally to the FXR LBD, used to capture the protein on glutathione SPA beads
experiment: Radioligand binding assay (scintillation proximity, radioligand displacement)
conditions-used: 40 nM GST-FXR LBD on SPA beads, test compound 6×10^−9 M to 2.5×10^−5 M, read-out: h-IC50 Binding
pIC50: −log10 of the molar value.
quantity-measured: pIC50

molecule	recorded-value
Cc1cc(C(=O)O)cc(C)c1OCC(C1CCCCC1)n1c(-c2ccc(Cl)cc2)nc2cc(F)c(F)cc21 (single isomer, unassigned; (-)) [Example 55]	8.40

I. O=C(O)c1cnc(OCC(C2CCCCC2)n2c(-c3ccc(Cl)cc3)nc3cc(F)c(F)cc32)c2ccsc12 (single isomer, unassigned; (-)) [Example 28]
II. COc1ccc(-c2nc3cc(F)c(F)cc3n2C(COc2c(C)cc(-c3nnn[nH]3)cc2C)C2CCCCC2)c(OC)n1 (single isomer, unassigned; (+)) [Example 100]
Consider entries I and II . Which has the numerically lower pIC50? Indicate your choice by writing its label.
I

1. O=C(O)C1(Oc2ccc(OCC(C3CCCCC3)n3c(-c4ccc(Cl)cc4)nc4cc(F)c(F)cc43)cc2)CCC1 (stereo not shown) [Example 117]
2. O=C(O)c1cc(F)c(OCC(C2CCCCC2)n2c(-c3ccc(Cl)cc3)nc3cc(F)c(F)cc32)c(Cl)c1 (stereo not shown) [Example 76]
3. CC(C)(Oc1c(F)cc(C(=O)O)cc1F)C(C1CCCCC1)n1c(-c2ccc(Cl)cc2)nc2cc(F)c(F)cc21 (single isomer, unassigned; (+)) [Example 116]
4. Cc1cc(-c2nnn[nH]2)cc(C)c1OCC(C1CC1)n1c(-c2ccc(Cl)cc2)nc2cc(F)c(F)cc21 (stereo not shown) [Example 136]
List the 4 entries from lowest pIC50 to highest pIC50 value. In plain terms: list the labels in the order you were asked to.
4, 1, 2, 3
(4: 7.00, 1: 7.40, 2: 8.40, 3: 8.70)

1. Fc1cc2nc(-c3ccc(Cl)cc3)n(C(COc3ccc(-c4nnn[nH]4)cn3)C3CCCCC3)c2cc1F (stereo not shown) [Example 56]
2. COc1ccc(-c2nc3cc(F)c(F)cc3n2C(COc2ccc(C(=O)O)cn2)C2CCCCC2)c(OC)n1 (stereo not shown) [Example 73]
Out of 1 and 2 , name the one with the higher pIC50. Indicate your choice by writing its label.
1

a. Cc1cc(OCC(C2CCCCC2)n2c(-c3ccc(Cl)cc3)nc3cc(F)c(F)cc32)ccc1OCC(=O)O (stereo not shown) [Example 92]
b. Cc1cc(-c2nnn[nH]2)cc(C)c1OCC(C1CCCCC1)n1c(-c2ccc(Cl)cc2)nc2ccccc21 (single isomer, unassigned; (+)) [Example 113]
c. Fc1cc2nc(-c3ccc(Cl)cc3)n(C(COc3ccc(-c4nnn[nH]4)cn3)C3CCCCC3)c2cc1F (single isomer, unassigned; (+)) [Example 62]
List the 3 entries from lowest pIC50 to highest pIC50 value. In plain terms: list the labels in the order you were asked to.
c, a, b
(c: 6.70, a: 7.05, b: 8.70)

====

system: FXR ligand binding domain (GST-FXR LBD fusion protein, human FXR aa 193-473) (Homo sapiens, UniProt Q96RI1)
Construct: fused on or other part: Glutathione-S-transferase (GST) fused N-terminally to the FXR LBD, used to capture the protein on glutathione SPA beads
experiment: Radioligand binding assay (scintillation proximity, radioligand displacement)
conditions-used: 40 nM GST-FXR LBD on SPA beads, test compound 6×10^−9 M to 2.5×10^−5 M, read-out: h-IC50 Binding
quantity-measured: IC50 (nM)

compound	unit-spec	IC50
COc1ccc(-c2nc3cc(F)c(F)cc3n2C(COc2c(C)cc(-c3nnn[nH]3)cc2C)C2CCCCC2)c(OC)n1 (single isomer, unassigned; (-)) [Example 101]	nM	0.2

A. O=C(O)c1ccc(OCC(C2CCCCC2)n2c(-c3ccc(Cl)cc3)nc3ccccc32)cc1 (stereo not drawn) [Example 32]
B. Cc1cc(C(=O)O)ccc1OCC(C1CCCCC1)n1c(-c2ccc(Cl)cc2)nc2cc(F)c(F)cc21 (single isomer, unassigned; (-)) [Example 12]
Out of A and B , name the one with the higher IC50. Indicate your choice by writing its label.
A
(A: 1000 nM, B: 50 nM)

====

system: FXR ligand binding domain (GST-FXR LBD fusion protein, human FXR aa 193-473) (Homo sapiens)
Construct: fused on or other part: Glutathione-S-transferase (GST) fused N-terminally to the FXR LBD, used to capture the protein on glutathione SPA beads
experiment: Radioligand binding assay (scintillation proximity, radioligand displacement)
conditions-used: 40 nM GST-FXR LBD on SPA beads, test compound 6×10^−9 M to 2.5×10^−5 M, read-out: h-IC50 Binding
Experimental: The following tests were carried out in order to determine the activity of the compounds of formula (I). […] Binding of test substances to the FXR ligand binding domain was assessed in a radioligand displacement assay. […] All binding assays were performed in 96-well plates and the amount of bound ligand was measured on a Packard TopCount using OptiPlates (Packard).
quantity-measured: IC50 (nM)

> print(dat)
                                   compound  recorded.value
1  Cc1cc(C(=O)O)cc(C)c1OCC(C1CCCCC1)n1c(-c2ccc(Cl)cc2)nc2cc(F)c(F)cc21 (stereo not drawn) [Example 53]              30
2  O=C(O)c1ccc(OCC(C2CCCCC2)n2c(-c3ccc(Cl)cc3)nc3cc(F)c(F)cc32)c(C(F)(F)F)c1 (stereo not drawn) [Example 39]              30
3  O=C(O)c1ccc(OCC(C2CCCCC2)n2c(-c3ccc(Cl)cc3)nc3cc(F)c(F)cc32)c(F)c1 (single isomer, unassigned; (+)) [Example 9]             100

====

system: FXR ligand binding domain (GST-FXR LBD fusion protein, human FXR aa 193-473) (Homo sapiens)
Construct: fused on or other part: Glutathione-S-transferase (GST) fused N-terminally to the FXR LBD, used to capture the protein on glutathione SPA beads
experiment: Radioligand binding assay (scintillation proximity, radioligand displacement)
conditions-used: 40 nM GST-FXR LBD on SPA beads, test compound 6×10^−9 M to 2.5×10^−5 M, read-out: h-IC50 Binding
Procedure: The following tests were carried out in order to determine the activity of the compounds of formula (I). […] Binding of test substances to the FXR ligand binding domain was assessed in a radioligand displacement assay. […] All binding assays were performed in 96-well plates and the amount of bound ligand was measured on a Packard TopCount using OptiPlates (Packard).
pIC50: −log10 of the molar value.
quantity-measured: pIC50

These solved cases illustrate the format of a correct answer.
> print(dat)
                                   molecule  recorded.value
1  O=C(O)C1CCC(NCC(C2CCCCC2)n2c(-c3ccc(Cl)cc3)nc3cc(F)c(F)cc32)CC1 (single isomer, unassigned) [Example 137]            5.21
2  Cc1cc(-c2nnn[nH]2)cc(C)c1OCC(C1CCCCC1)n1c(-c2ccc(Cl)cc2)nc2ccccc21 (centres unmarked) [Example 111]            7.70
3  O=C(O)c1ccc(COCC(C2CCCCC2)n2c(-c3ccc(Cl)cc3)nc3cc(F)c(F)cc32)cc1 (single isomer, unassigned; (-)) [Example 68]            7.22
4  O=C(O)c1ccc(SCC(C2CCCCC2)n2c(-c3ccc(Cl)cc3)nc3cc(F)c(F)cc32)cc1 (centres unmarked) [Example 140]            7.15
5  O=C(O)c1cc(F)c(OCC(C2CCCCC2)n2c(-c3ccc(Cl)cc3)nc3ccccc32)c(F)c1 (single isomer, unassigned; (+)) [Example 103]            7.00

A. COc1ccc(-c2nc3cc(F)c(F)cc3n2C(COc2c(F)cc(C(=O)O)cc2F)C2CCCCC2)c(OC)n1 (single isomer, unassigned; (-)) [Example 98]
B. Cc1nc(C(=O)O)ncc1OCC(C1CCCCC1)n1c(-c2ccc(Cl)cc2)nc2cc(F)c(F)cc21 (centres unmarked) [Example 25]
Out of A and B , name the one with the higher pIC50. Indicate your choice by writing its label.
A
(A: 9.00, B: 6.10)

====

system: FXR ligand binding domain (GST-FXR LBD fusion protein, human FXR aa 193-473) (Homo sapiens, UniProt Q96RI1)
Construct: fused on or other part: Glutathione-S-transferase (GST) fused N-terminally to the FXR LBD, used to capture the protein on glutathione SPA beads
Sequence (Q96RI1 211-486 limits assumed): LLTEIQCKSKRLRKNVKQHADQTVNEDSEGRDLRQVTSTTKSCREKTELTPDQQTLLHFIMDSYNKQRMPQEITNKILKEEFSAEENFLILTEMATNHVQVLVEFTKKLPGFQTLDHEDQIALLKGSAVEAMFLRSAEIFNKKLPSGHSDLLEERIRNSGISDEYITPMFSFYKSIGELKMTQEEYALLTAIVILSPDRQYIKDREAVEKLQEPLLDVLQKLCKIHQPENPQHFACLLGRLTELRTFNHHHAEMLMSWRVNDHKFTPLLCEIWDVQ
experiment: Radioligand binding assay (scintillation proximity, radioligand displacement)
conditions-used: 40 nM GST-FXR LBD on SPA beads, test compound 6×10^−9 M to 2.5×10^−5 M, read-out: h-IC50 Binding
pIC50: −log10 of the molar value.
quantity-measured: pIC50

These solved cases illustrate the format of a correct answer.
> print(dat)
                                    molecule  recorded.value
 1  O=C(O)C1(Oc2ccc(OCC(C3CCCCC3)n3c(-c4ccc(Cl)cc4)nc4cc(F)c(F)cc43)cc2)CCC1 (single isomer, unassigned; (+)) [Example 118]            6.51
 2  O=C(O)c1ccc(S(=O)(=O)CC(C2CCCCC2)n2c(-c3ccc(Cl)cc3)nc3cc(F)c(F)cc32)cc1 (centres unmarked)            5.09
 3  CC(C)(Oc1ccc(C(=O)O)cc1)C(C1CCCCC1)n1c(-c2ccc(Cl)cc2)nc2cc(F)c(F)cc21 (single isomer, unassigned; (-))            8.00
 4  O=C(O)C1(Oc2ccc(OCC(C3CCCCC3)n3c(-c4ccc(Cl)cc4)nc4cc(F)c(F)cc43)cc2)CC1 (centres unmarked) [Example 120]            7.52
 5  O=C(O)c1ccc(OCC(C2CCCCC2)n2c(-c3ccc(Cl)cc3)nc3cc(F)c(F)cc32)c(C(F)(F)F)c1 (single isomer, unassigned; (+)) [Example 40]            7.00
 6  O=C(O)C1CCC(NCC(C2CCCCC2)n2c(-c3ccc(Cl)cc3)nc3cc(F)c(F)cc32)CC1 (single isomer, unassigned) [Example 138]            6.52
 7  O=C(O)c1cnc(OCC(C2CCCCC2)n2c(-c3ccc(Cl)cc3)nc3cc(F)c(F)cc32)c(Cl)c1 (centres unmarked) [Example 22]            7.52
 8  O=C(O)c1c(F)cc(OCC(C2CCCCC2)n2c(-c3ccc(Cl)cc3)nc3cc(F)c(F)cc32)cc1F (single isomer, unassigned; (-)) [Example 44]            6.40
 9  Fc1cc(-c2nnn[nH]2)cc(F)c1OCC(C1CCCCC1)n1c(-c2ccc(Cl)cc2)nc2ccccc21 (centres unmarked)            7.70
10  CC(C)(Oc1ccc(OCC(C2CCCCC2)n2c(-c3ccc(Cl)cc3)nc3cc(F)c(F)cc32)cc1)C(=O)O (centres unmarked)            6.70

A. Cc1c(OCC(C2CCCCC2)n2c(-c3ccc(Cl)cc3)nc3cc(F)c(F)cc32)ccc(OC(C)(C)C(=O)O)c1C (centres unmarked)
B. COc1cc(C(=O)O)cc(OCC(C2CCCCC2)n2c(-c3ccc(Cl)cc3)nc3cc(F)c(F)cc32)n1 (centres unmarked)
Out of A and B , name the one with the higher pIC50. Indicate your choice by writing its label.
A
(A: 6.52, B: 6.22)
